Hello, the source for this data is PubChem BioAssay, in case you need it.

Catalogue of compounds with associated inhibition
# TARGET SYSTEM: L-lactate dehydrogenase (Plasmodium falciparum (isolate CDC / Honduras))
# EXPERIMENTAL DETAILS: PfLDH activity inhibition – cell lysate, 3D7 strain, counter-screen for P. falciparum growth inhibition project (AID 2304);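 note: 0% = vehicle and 100% = reference inhibitor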
# EXPERIMENTAL CONTEXT: P. falciparum 3D7 crude extract, LDH APAD/NBT absorbance; at 2 µM; hits give high values

>  <COMPOUND>
CN(C)CCOc1ccc(N2CCN(CCCCNC(=O)c3ccc(NC(=O)c4ccc(Cl)cc4)cc3)CC2)cc1

>  <OUTPUT UNIT>
%

>  <inhibition>
0

$$$$
>  <COMPOUND>
CCN1CCN(c2cc(C)c3cc(NC(=O)C=Cc4cccc(OC)c4OC)ccc3n2)CC1

>  <OUTPUT UNIT>
%

>  <inhibition>
-3

$$$$
>  <COMPOUND>
COc1cc2nc(N3CCC(CNC(=O)c4ccc(NC(=O)c5ccc(Cl)cc5)cc4)CC3)nc(N)c2cc1OC

>  <OUTPUT UNIT>
%

>  <inhibition>
0

$$$$
>  <COMPOUND>
Cc1ccc2c(c1)nc(N)n2C[C@H](O)c1ccccc1

>  <OUTPUT UNIT>
%

>  <inhibition>
7

$$$$
>  <COMPOUND>
NC(=O)c1cccc(C(=O)Nc2cccc(-c3cccc(-c4nc5ccc(F)cc5[nH]4)c3)c2)c1

>  <OUTPUT UNIT>
%

>  <inhibition>
1

$$$$
>  <COMPOUND>
O=S(=O)(NCCN1CCCC1)c1cccc(-c2ccc(CNC3Cc4ccccc4C3)cc2)c1

>  <OUTPUT UNIT>
%

>  <inhibition>
-4

$$$$
>  <COMPOUND>
Nc1c(Cl)cc(C(O)CNCCCCCOCCCc2ccc3ncccc3c2)cc1Cl (stereo unspecified)

>  <OUTPUT UNIT>
%

>  <inhibition>
-8

$$$$
>  <COMPOUND>
c1ccc(-c2cc(NCc3cccc4ccccc34)c3[nH]ncc3n2)cc1

>  <OUTPUT UNIT>
%

>  <inhibition>
-8

$$$$
>  <COMPOUND>
Fc1cc(Cl)ccc1Nc1ccnc2cc(-c3ccc(CN4CCOCC4)o3)ccc12

>  <OUTPUT UNIT>
%

>  <inhibition>
0

$$$$
>  <COMPOUND>
Cc1cc(NC(=O)Nc2ccc(Oc3ccccc3)cc2)c2ccccc2n1

>  <OUTPUT UNIT>
%

>  <inhibition>
4

$$$$
>  <COMPOUND>
CC1(C)N=C(N)NC(NOCc2ccc(Cl)c(Cl)c2)=N1

>  <OUTPUT UNIT>
%

>  <inhibition>
2

$$$$
>  <COMPOUND>
CCC(C)Oc1ccc2nc(N)nc(N)c2c1Cl (stereo unspecified)

>  <OUTPUT UNIT>
%

>  <inhibition>
-2

$$$$
>  <COMPOUND>
CS(=O)(=O)c1ccc2c(c1)CCN(CCC1CCC(NC(=O)c3cc4cccc(Br)c4[nH]3)CC1)CC2 (stereo unspecified)

>  <OUTPUT UNIT>
%

>  <inhibition>
-8

$$$$
>  <COMPOUND>
Oc1ccc(CN2CC[C@@H](N3CCN(CCc4ccccc4)CC3)[C@H](O)C2)cc1Cl

>  <OUTPUT UNIT>
%

>  <inhibition>
2

$$$$
>  <COMPOUND>
COc1ccc2nccc([C@@H](O)CN3CCC(NCc4ccc5c(c4)OCCO5)CC3)c2c1

>  <OUTPUT UNIT>
%

>  <inhibition>
-4

$$$$
>  <COMPOUND>
Cc1cnn(-c2cccc(C(=O)NC3CCC(CCN4CCc5ccc(C#N)cc5CC4)CC3)c2)c1 (stereo unspecified)

>  <OUTPUT UNIT>
%

>  <inhibition>
-9

$$$$
